tested on: SK-MEL-2 melanoma; experiment: NCI tumour cell line growth inhibition, 48 h
Recorded measurements of TGI, one per entry
observation.type: TGI

>  <compound>
CN(C)CCNC(=O)c1cccc2ccc(-c3ccc(F)cc3)nc12

>  <observation.type>
TGI

>  <result>
21.3 µM

$$$$
>  <compound>
COC1CCCCN1C(=O)c1ccccc1 (stereo not drawn)

>  <observation.type>
TGI

>  <result>
> 25.3 µM

$$$$
>  <compound>
Cc1nn(C(=O)CC(=O)Nc2ccc(Cl)cc2)c(C)c1N=Nc1ccccc1C(=O)O

>  <observation.type>
TGI

>  <result>
> 100 µM

$$$$
>  <compound>
CC1(C)N=C(N)N=C(N)N1c1ccc(CCCCc2ccc(Cl)c(S(=O)(=O)F)c2)c(Cl)c1

>  <observation.type>
TGI

>  <result>
> 33.6 µM

$$$$
>  <compound>
C=C(Nc1nc2ccc(C)cc2s1)C(=O)C(CC)C(=O)C(CC)CC1C(=O)NC(=O)NC1=O (stereo not drawn)

>  <observation.type>
TGI

>  <result>
> 100 µM

$$$$
>  <compound>
O=C1c2cccc3cccc(c23)C(=O)N1CCCCCN1CCN(CCCCCOc2ccc(-c3nc4ccc(N5CCOCC5)cc4[nH]3)cc2)CC1

>  <observation.type>
TGI

>  <result>
32.8 µM

$$$$
>  <compound>
O=C(NNC(=O)c1ccccc1O)c1cccc(Br)c1

>  <observation.type>
TGI

>  <result>
> 100 µM

$$$$
>  <compound>
C[C@]12CCC(=O)C=C1CC[C@@H]1C2CC[C@]2(C)Nc3[nH]ncc3CC12 (stereo partly drawn)

>  <observation.type>
TGI

>  <result>
> 100 µM

$$$$
